Experiment: physchem
Format: physicochemical
Conditions: 37 °C, pH 2.5, aqueous buffer
readout.name: solubility (µg/mL)
One number for each entry, in µg/mL.

IN: Provide one value: measured solubility of Nc1nc2c(ncn2COCCO)c(=O)[nH]1 [Acyclovir]
OUT: 3300

* * *

Experiment: physchem
Format: physicochemical
Settings: 37 °C, pH 4.5, aqueous buffer
readout.name: solubility (µg/mL)
Give bare numbers, in µg/mL.

Some molecules with recorded solubility:
[[record]]
structure_smiles = "CCCCC1=NC2(CCCC2)C(=O)N1Cc1ccc(-c2ccccc2-c2nnn[nH]2)cc1"
readout_name = "solubility"
readout_value = 20

[[record]]
structure_smiles = "CCCCc1ncc(/C=C(\\Cc2cccs2)C(=O)O)n1Cc1ccc(C(=O)O)cc1"
readout_name = "solubility"
readout_value = 18


Then there is this molecule:
IN: Provide one value: measured solubility of `Nc1nc2c(ncn2COCCO)c(=O)[nH]1`
OUT: 2600

The origin of these recorded values is patent US20110159088A1.
